- Study target: HLA-A*29:02
- Test protocol: IEDB peptide-MHC binding, purified MHC/competitive/radioactivity; filed as Kd, often an IC50 or EC50 that approximates it; bounds were set here for any values at or beyond the usual limits of such assays
- Study conditions: source organism: Variola virus
Recorded endpoint: Kd

Can you share its Kd? I mean this sequence: QSDTVFDHY
≥ 38 µM

* * *

pKd values by entry
- Study target: HLA-A*33:01
- Test protocol: IEDB peptide-MHC binding, purified MHC/competitive/radioactivity; filed as Kd, often an IC50 or EC50 that approximates it; bounds were set here for any values at or beyond the usual limits of such assays
- Study conditions: source organism: Mammarenavirus juninense
Keep it numeric: pKd is minus log10 of the concentration in mol/L.

[
  {
    "Seq": "MVGLFSNNPH",
    "Study target": "HLA-A*33:01",
    "pKd": 6.40
  }
]

Can you share its pKd? I mean this sequence: NKQYIHCFRK
4.76
